# Experimental protocol: NCI Yeast Anticancer Drug Screen. Data for the wt1 strain (AID 149);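 further: 0% = growth of vehicle-treated wt1 cultures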
# Cond: S. cerevisiae wt1 strain (SPY 50644) growth inhibition; at 100.0 µM
Compounds without any hit were thinned out: in the full panel of roughly 79,000, 15% have a hit. Active and inactive are the calls of the source. No stated cut-off is given here; in the data, active means growth inhibition above about 70%; inactive means the rest.
The reply should name one outcome from active, inactive

Here are 5 compounds together with their reported answers.
INSERT INTO assay_data (compound, label_value) VALUES
  ('CC(C)[Si]1(C(C)C)OCC2OC(n3cnc4c(N)ncnc43)C(N)C2O[Si](C(C)C)(C(C)C)O1 (configuration not stated)', 'active'),
  ('CC(CC/C(=N/O)c1ccccc1)(CC/C(=N\O)c1ccccc1)[N+](=O)[O-] (configuration not stated)', 'inactive'),
  ('Cc1oc2ccccc2c(=O)c1Cn1nnc2ccccc21', 'inactive'),
  ('O=C1C=C(Br)C(=O)c2ccccc21', 'active'),
  ('O=CC1(F)CC1(c1ccccc1)c1ccccc1 (configuration not stated)', 'active');

Q: # outcome recorded in this test, key = Cc1ccnc2c(O)cccc12
Result: active

Q: Which outcome was assigned to CN(C)N=Nc1ccc(N(C)C)cc1 in this test?
Result: inactive

---

# Experimental protocol: NCI Yeast Anticancer Drug Screen. Data for the mgt1 strain (AID 153)
# Cond: S. cerevisiae mgt1 mutant growth inhibition; at 33.0 µM
About 79,000 compounds went through this panel and 15% of them were active in at least one assay; those are over-represented in the sample as a whole. Active and inactive are the calls of the source. Rule as the data show it: active = growth inhibition above about 70%; inactive = the rest. Residues, ends and D or L forms follow the SMILES beside them. *: point of attachment. Fmoc = O=C(OCC1c2ccccc2-c2ccccc21)*; Boc = CC(C)(C)OC(=O)*
Use one of these outcomes when replying: True = active, False = inactive

INSERT INTO assay_data (molecule, label_value) VALUES
  ('CCOC(=O)Nc1ccc(C)c(NC(=O)OCC)c1', 'False'),
  ('N#CC1OB(O)c2ccccc21 (stereo unspecified)', 'False'),
  ('CCCCOc1ccc2nc(C)cc(N=[N+]=[N-])c2c1', 'False');

Q: Tell me the assay call for CNCC(C)CNC please.
Result: False

Q: State the result this test recorded for CC(C)(Br)C(=O)/C=C/c1ccccc1 .
Result: False

Q: Just curious, what result did CCCCS/C(=C(/C#N)C(N)=O)c1cc2c([nH]1)CCCC2 get here?
Result: False

Q: Assay outcome for CCCCCCCCCC(=O)N(CCC)CCC : what was it?
Result: False

Q: Which outcome was assigned to COc1ccc(N=c2cc(-c3ccccc3)oc3ccccc23)cc1 in this test?
Result: False

Q: Which outcome did this test record for the molecule O=C1Oc2ccccc2C(=O)/C1=C/N1C(=O)N/C(=C\c2ccccc2Br)C1=O ?
Result: False

Q: Test call for this molecule, please: COC(=N)c1ccc(O)c(C)c1
Result: False

Q: Dear colleague, could you share the recorded outcome for Cc1c(Cl)c(C)c(Cl)c(O)c1Cl when you have a moment?
Result: True

Q: Record request — test call for COc1ccc(/C=C2\SC(=S)N(/C=C3\C(=O)N(c4ccccc4)N=C3C)C2=O)cc1OC
Result: True

Q: What call does the record list for CC(C)(C)OC(=O)NCCCCC(NC(=O)C(Cc1c[nH]c2ccccc12)NC(=O)OCC1c2ccccc2-c2ccccc21)C(=O)O (stereo unspecified) (Fmoc-Trp-Lys(Boc)-OH; configuration not given here) ?
Result: False

Q: Each molecule tested received a call. Report the one for CSC(=S)N/N=C/c1ccccc1 .
Result: False

Q: Could you check what this test reported for COc1ccc(C(=O)/C=C\c2ccc(Cl)c(Cl)c2)cc1 ?
Result: False

Q: How did this test come out for CCCNC(=O)OCc1c(COC(=O)NCCC)c(-c2ccc(Cl)c(Cl)c2)n2c1CCC2 ?
Result: False

Q: For NC(N)=NC(N)=Nc1ccccc1 (tested in a mixture with another compound) , which call appears in the assay record?
Result: False

Q: Could you kindly confirm the outcome this assay logged for N#CCCC1C(C#N)C2(Cl)CC1(Cl)C(Cl)=C2Cl (stereo unspecified) ?
Result: False

Q: Can you look up the reported call for CC1=NN(C(=O)CC(=O)NC(=O)/C=C\c2ccccc2)C(=O)C1N=Nc1ccc([N+](=O)[O-])cc1 (stereo unspecified) for me?
Result: False

Q: Each molecule tested received a call. Report the one for CCCCCCC=C(C(=O)OCC)C(=O)OCC .
Result: False

Q: Status in this test for CC1=NN(C(=O)c2ccccc2O)C(=O)/C1=C/c1ccco1 ?
Result: True

Q: Call for entry Nc1cc(Cl)ccc1Nc1ccccc1 :
Result: False

Q: What outcome does the record of this test show for CCCC/C=C1\CCC(CN2CCCC2)C1=O (stereo unspecified) ?
Result: False

Q: Give the logged outcome of this assay for the following molecule: COc1ccc(C(C)c2cc3c(cc2OC(C)O)OCO3)cc1 (stereo unspecified)
Result: False

Q: Call for entry O=S(=O)(NC1CCCC(c2ccccc2)C1)c1ccccc1 (stereo unspecified) :
Result: False

---

# Experimental protocol: NCI Yeast Anticancer Drug Screen. Data for the CLN2oe strain (AID 163);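 further: 0% = growth of vehicle-only control cultures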
# Cond: S. cerevisiae CLN2oe strain, at 100.0 µM
This is part of a sample that, as a whole, favours compounds with a hit. Of some 79,000 tested, about 15% had one in any assay. Calls of active or inactive are those of the source. Cut-off read from the data, not from the text of the source: active = growth inhibition above about 70%; inactive = the rest.
Respond with a class label; see active, inactive

Answered examples (8):
INSERT INTO measurements (molecule, label_value) VALUES
  ('O=C(CCSC1=NCCCN1)c1ccc(F)cc1', 'active'),
  ('CCOC(=O)C(Cc1c2ccccc2cc2ccccc12)(NC(C)=O)C(=O)OCC', 'inactive'),
  ('CCCC/C=C1\CCC(CN2CCCC2)C1=O (centres undefined)', 'active'),
  ('CCCCCCCCN1COCC(COc2ccccc2C)OC1 (centres undefined)', 'active'),
  ('CCN(CC)C(=S)SC(=S)N(CC)CC', 'active'),
  ('O=S(=O)(NNc1ccccc1)c1ccccc1', 'active'),
  ('CC1CN(/N=C\c2ccc([N+](=O)[O-])o2)C(=O)O1 (centres undefined)', 'inactive'),
  ('COC(=O)C(Cl)(Cl)N=Nc1c(Cl)cc(Cl)c(C)c1Cl', 'active');

Q: Kindly provide the recorded test outcome for the following molecule: CC(=O)NC(c1nc2cc(C)c(C)cc2[nH]1)c1nc2cc(C)c(C)cc2[nH]1
Result: inactive

---

Listed below: growth inhibition values for each entry.
# Experimental protocol: NCI Yeast Anticancer Drug Screen. Data for the rad52 strain (AID 147);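 further: 0% = growth of vehicle-treated control cultures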
# Cond: S. cerevisiae rad52 mutant growth inhibition; at 100.0 µM; hits give high values
# Protocol: Growth inhibition of yeast strains with defined genetic alterations is measured as a screen for potential anti-cancer activity. Selected strains with alterations in DNA damage repair or cell cycle control were exposed to compounds and growth inhibition was measured relative to vehicle treated controls. The strain used in this assay is rad52
Compounds without any hit were thinned out: in the full panel of roughly 79,000, 15% have a hit. The source made the active and inactive calls. Cut-off read from the data, not from the text of the source: active = growth inhibition above about 70%; inactive = the rest.

INSERT INTO assay_data (molecule, observed_value) VALUES
  ('O=C1c2ccccc2C(=O)c2c(O)c(NCCNCCO)cc(O)c21', '92% (active)'),
  ('O=C(NO)c1coc2ccccc2c1=O', '9% (inactive)'),
  ('Fc1cc(F)c(F)c(S)c1F', '98% (active)'),
  ('CC(=O)CC(c1ccccc1)c1c(O)c2ccccc2oc1=O (stereo unspecified)', '75% (active)'),
  ('COc1ccccc1NC(=O)c1ccc(Cl)cc1', '1% (inactive)');

Kindly review the next molecule as well.
Q: Read the entry O=[N+]([O-])c1ccc2[nH]c3c(-c4ccccc4)nccc3c2c1 and write its reported growth inhibition.
Result: 97% (active)

---

# Experimental protocol: NCI Yeast Anticancer Drug Screen. Data for the rad52 strain (AID 147);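 further: 0% = growth of vehicle-treated control cultures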
# Cond: S. cerevisiae rad52 mutant growth inhibition; at 100.0 µM
This is part of a sample that, as a whole, favours compounds with a hit. Of some 79,000 tested, about 15% had one in any assay. Active and inactive are the calls of the source. Cut-off read from the data, not from the text of the source: active = growth inhibition above about 70%; inactive = the rest.
// allowed return values: active, inactive

// below: answered molecules
INSERT INTO results (molecule, label_value) VALUES
  ('C[n+]1c(/C=C/c2ccc(/C=N/NC(=O)c3ccc(C(=O)N/N=C/c4ccc(/C=C/c5cn6ccccc6[n+]5C)cc4)cc3)cc2)cn2ccccc21', 'active'),
  ('COC(=O)C(Cc1c[nH]c2ccccc12)N1CN(C)c2ccccc2C1=O (stereo not drawn)', 'active'),
  ('O=C1c2ccccc2N2OC3(N4CCCC4)CCCCC3C12c1ccccc1 (stereo not drawn)', 'active'),
  ('O=S(=O)(c1ccccc1)N1CN2CN(C1)CN(S(=O)(=O)c1ccccc1)C2', 'inactive'),
  ('CCC(/C=C/c1ccccc1)=N\Nc1ccc(Cl)cc1', 'active'),
  ('CC(C)N(CCCNc1c2ccccc2nc2cccc([N+](=O)[O-])c12)C(C)C', 'active'),
  ('COc1cc(OC)c(CSCC(NC(=O)OCC2c3ccccc3-c3ccccc32)C(=O)O)c(OC)c1 (stereo not drawn)', 'active'),
  ('Nc1ccc2c(c1)C(=O)c1c(F)cccc1-2', 'active');

Q: Identify the outcome logged in this assay for the molecule shown: O=C(Nc1cccs1)c1ccccc1
Result: inactive

Q: Identify the outcome logged in this assay for the molecule shown: NCCOc1ccc(/C(=C(/Cl)c2ccccc2)c2ccccc2)cc1
Result: active

Q: Fill in: this test's call for O=[N+]([O-])c1cn[n+]([O-])c2ccccc12 is ___
Result: active

Q: What call does the record list for CC1(C)CC(=O)C(C(=O)Nc2cccs2)=C(O)C1 ?
Result: active

Q: // param item: CCCCCCCCCCCCCCCCCCNC(=S)/N=C/c1c(O)c2ccccc2[nH]c1=O ; yields the recorded call
Result: inactive

Q: Test call for this molecule, please: Fc1ccc(Nc2ccc3ccccc3c2)cc1
Result: active

Q: In this assay, the call recorded for O=C(C#Cc1ccccc1)Nc1ccccc1 was what?
Result: active

Q: Check the results log: what was the call for CCCC/C=C1\CCC(CN2CCCC2)C1=O (stereo not drawn) ?
Result: active

Q: Which outcome was entered for the molecule O=C(C#Cc1ccccc1)/C=C/c1ccccc1 in this test?
Result: active

Q: Could you please tell me the result logged for COC(=O)C(=O)CC(=O)c1cccc(OC)c1 in this assay?
Result: inactive
